Where do these numbers come from? They come from patent US20210395394A1.

Quick list: Kd per entry.
target: Pan-species-specific antigen Plasmodium Lactate DeHydrogenase (Pan-PLDH) protein; assay: indirect ELISA at four coating concentrations, KD calculated from half-maximal OD
Numeric only. Scale: nM

Solved entries:
binder="WT 1-3 (antibody, mouse IgG2b, kappa, V domains shown) VH: QVQLQQPGAELVRPGASVKLSCKASGSSFTNYFMNWVKQRPGQGLEWIGMINPSESETRINQKFKDKATLTVDKSSSTAYMQLSSLTAEDSAVYYCARSGEFYTYYWDYWGQGTTLTVSS VL: DIQLTQSPASLSASVGETVTITCRGTGNLHNYIAWYQQKQGKSPQLLVYNARTLADGVPSRFSGSGSGTQYSLKINSLQPEDFGSYYCQTFWSSYTFGGGTKLEIKR" measured_value=0.485
binder="Mutation 1-23 (antibody, mouse IgG2b, kappa, V domains shown) VH: QVQLQQPGAELVRPGASVKLSCKASGYSFTNYWMNWVKQRPGQGLEWIGMIHPSESETRVNQKFKDKATLTVDKSSSTAYMQLSSLTAEDSAVYYCARSGEFYTTYFDYWGQGTTLTVSS VL: DIQLTQSPASLSASVGETVTITCRGSGNLHNYLAWYQQKQGKSPQLLVYNARTVADGVPSRFSGSGSGTQYSLKINSLQPEDFGSYYCQSFWSTYTFGGGTKLEIKR" measured_value=0.319
binder="Mutation 1-20 (antibody, mouse IgG2b, kappa, V domains shown) VH: QVQLQQPGAELVRPGASVKLSCKASGSSFTNYWMNWVKQRPGQGLEWIGMIHPSDSETRVNQKFKDKATLTVDKSSSTAYMQLSSLTAEDSAVYYCARSGDFYTTYFDYWGQGTTLTVSS VL: DIQLTQSPASLSASVGETVTITCRGTGNVHNYLAWYQQKQGKSPQLLVYNAKTVADGVPSRFSGSGSGTQYSLKINSLQPEDFGSYYCQTFWSTYTFGGGTKLEIKR" measured_value=0.204
binder="WT 1-8 (antibody, mouse IgG2b, kappa, V domains shown) VH: QVQLQQPGAELVRPGASVKLSCKASGTSFTNYFMNWVKQRPGQGLEWIGMINPSDSETRVNQKFKDKATLTVDKSSSTAYMQLSSLTAEDSAVYYCAKSGEFYTSYWDYWGQGTTLTVSS VL: DIQLTQSPASLSASVGETVTITCRGSGNVHNYIAWYQQKQGKSPQLLVYNAKTIADGVPSRFSGSGSGTQYSLKINSLQPEDFGSYYCQSFWSSYTFGGGTKLEIKR" measured_value=1.36
binder="Mutation 1-31 (antibody, mouse IgG2b, kappa, V domains shown) VH: QVQLQQPGAELVRPGASVKLSCKASGYSFTNYWMNWVKQRPGQGLEWIGMIHPSDSETRLNQKFKDKATLTVDKSSSTAYMQLSSLTAEDSAVYYCARSGDFYTYYFDYWGQGTTLTVSS VL: DIQLTQSPASLSASVGETVTITCRGSGNIHNYLAWYQQKQGKSPQLLVYNAKTVADGVPSRFSGSGSGTQYSLKINSLQPEDFGSYYCQTFWSTYTFGGGTKLEIKR" measured_value=0.514
binder="Mutation 1-42 (antibody, mouse IgG2b, kappa, V domains shown) VH: QVQLQQPGAELVRPGASVKLSCKASGYSFTNYWMNWVKQRPGQGLEWIGMIHPSDSETRINQKFKDKATLTVDKSSSTAYMQLSSLTAEDSAVYYCARSGDFYTSYFDYWGQGTTLTVSS VL: DIQLTQSPASLSASVGETVTITCRGTGNIHNYLAWYQQKQGKSPQLLVYNAKTIADGVPSRFSGSGSGTQYSLKINSLQPEDFGSYYCQTFWSTYTFGGGTKLEIKR" measured_value=0.545

# input binder: Mutation 1-29 (antibody, mouse IgG2b, kappa, V domains shown) VH: QVQLQQPGAELVRPGASVKLSCKASGSSFTNYWMNWVKQRPGQGLEWIGMIHPSESETRVNQKFKDKATLTVDKSSSTAYMQLSSLTAEDSAVYYCAKSGEFYTTYFDYWGQGTTLTVSS VL: DIQLTQSPASLSASVGETVTITCRGTGNIHNYLAWYQQKQGKSPQLLVYNARTVADGVPSRFSGSGSGTQYSLKINSLQPEDFGSYYCQTFWSTYTFGGGTKLEIKR ; wanted: its Kd 0.411
